# systemUnderTest: Cytochrome P450 2E1 (Homo sapiens, UniProt P05181); further: in other assays of this panel Not Active means under 50% inhibition at 10 µM
# Sequence (P05181 whole entry): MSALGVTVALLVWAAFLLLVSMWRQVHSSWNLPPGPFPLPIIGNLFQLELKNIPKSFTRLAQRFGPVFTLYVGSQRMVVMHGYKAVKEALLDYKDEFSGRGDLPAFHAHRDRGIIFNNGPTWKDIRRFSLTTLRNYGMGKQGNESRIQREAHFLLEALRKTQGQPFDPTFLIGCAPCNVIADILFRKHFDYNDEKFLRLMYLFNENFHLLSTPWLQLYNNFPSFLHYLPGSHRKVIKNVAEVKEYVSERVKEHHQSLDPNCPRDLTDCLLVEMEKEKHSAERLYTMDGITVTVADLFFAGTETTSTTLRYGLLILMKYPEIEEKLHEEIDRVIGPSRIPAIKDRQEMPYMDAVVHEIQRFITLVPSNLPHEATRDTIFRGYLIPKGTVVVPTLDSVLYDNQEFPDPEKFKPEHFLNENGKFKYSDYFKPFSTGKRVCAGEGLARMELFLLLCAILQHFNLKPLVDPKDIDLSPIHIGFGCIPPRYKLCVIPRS
# experimentalConditions: bti-tn-5b1-4
valueType: Ki

| compound | reportedValue |
| --- | --- |
| C[C@H]1C[C@@H]2[C@H]([C@@H](O)C[C@@]3(C)[C@H]2CC[C@]3(O)C(=O)CO)[C@@]2(C)C=CC(=O)C=C12 | Not Active |
| Cc1c(OCC(F)(F)F)ccnc1C[S+]([O-])c1nc2ccccc2[nH]1 (stereo not drawn) | Not Active |
| CC(C)(C)NC(=O)[C@H]1CC[C@H]2[C@@H]3CC[C@H]4NC(=O)C=C[C@]4(C)[C@H]3CC[C@]12C [FINASTERIDE] | Not Active |

====

# measurementProtocol: DRUGMATRIX: Phorbol Ester radioligand binding (ligand: [3H] PDBu)
# Format: cell membranes, Mus musculus, ICR, Brain, Membrane
# experimentalConditions: Not Active = under 50% inhibition at 10 µM

| substance | IC50 |
| --- | --- |
| NYSTATIN | Not Active |
| MANGANESE CHLORIDE ANHYDROUS | Not Active |
| SODIUM ORTHOVANAD | Not Active |
| GENTAMICIN | Not Active |
| GADOPENTETATE DIMEGLUMINE | Not Active |
| AURANOFIN | Not Active |
| GRAMICIDIN | Not Active |

====

# systemUnderTest: Kappa-type opioid receptor (Homo sapiens)
# Sequence (P41145 whole entry): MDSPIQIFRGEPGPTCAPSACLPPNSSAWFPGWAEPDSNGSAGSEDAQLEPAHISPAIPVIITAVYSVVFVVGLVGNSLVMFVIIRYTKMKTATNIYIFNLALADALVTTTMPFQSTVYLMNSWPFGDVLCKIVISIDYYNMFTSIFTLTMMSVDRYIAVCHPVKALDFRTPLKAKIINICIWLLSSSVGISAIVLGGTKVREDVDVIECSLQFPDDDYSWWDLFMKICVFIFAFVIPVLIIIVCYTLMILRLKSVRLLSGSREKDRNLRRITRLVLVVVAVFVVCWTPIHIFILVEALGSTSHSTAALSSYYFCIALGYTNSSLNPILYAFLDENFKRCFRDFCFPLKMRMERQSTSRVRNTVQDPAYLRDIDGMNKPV
# measurementProtocol: DRUGMATRIX: Opiate kappa (OP2, KOP) radioligand binding (ligand: [3H] Diprenorphine)
# Format: cell membranes, HEK293, Membrane
# experimentalConditions: Not Active = under 50% inhibition at 10 µM; read-out: IC50
valueType: IC50 (µM)

| molecule | valueType | unitsLabel | reportedValue |
| --- | --- | --- | --- |
| Clc1ccc(COC(Cn2ccnc2)c2ccc(Cl)cc2Cl)cc1 (configuration not stated) | IC50 | µM | 8.62 |
| CC(=O)Oc1ccc(C(c2ccc(OC(C)=O)cc2)c2ccccn2)cc1 | IC50 | µM | 2.44 |

====

# systemUnderTest: UniProt:P21452
# Sequence (P21452 whole entry): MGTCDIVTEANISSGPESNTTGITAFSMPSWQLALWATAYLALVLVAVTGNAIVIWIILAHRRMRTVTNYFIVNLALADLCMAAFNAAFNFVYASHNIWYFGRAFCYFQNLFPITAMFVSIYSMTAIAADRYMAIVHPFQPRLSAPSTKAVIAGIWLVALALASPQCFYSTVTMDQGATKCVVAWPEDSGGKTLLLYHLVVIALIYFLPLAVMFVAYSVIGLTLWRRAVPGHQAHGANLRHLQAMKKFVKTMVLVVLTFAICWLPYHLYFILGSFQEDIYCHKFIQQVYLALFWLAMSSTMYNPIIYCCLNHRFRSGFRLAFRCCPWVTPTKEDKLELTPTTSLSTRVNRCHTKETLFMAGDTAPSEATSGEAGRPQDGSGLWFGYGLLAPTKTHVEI
# Type: cell membranes, CHO, Membrane
# experimentalConditions: read-out: Ki
pKi: −log10 of the molar value.

| compound | pKi |
| --- | --- |
| Oc1c(Cl)cc(Cl)c(Cl)c1Cc1c(O)c(Cl)cc(Cl)c1Cl [HEXACHLOROPHENE] | 5.86 |
| CC(=O)O[C@H]1C(=O)[C@@]2(C)[C@H]([C@H](OC(=O)c3ccccc3)[C@]3(O)C[C@H](OC(=O)[C@H](O)[C@@H](NC(=O)c4ccccc4)c4ccccc4)C(C)=C1C3(C)C)[C@]1(OC(C)=O)CO[C@@H]1C[C@@H]2O [PACLITAXEL] | 5.69 |
| Clc1ccc(COC(Cn2ccnc2)c2ccc(Cl)cc2Cl)cc1 (centres undefined) [ECONAZOLE] | 5.70 |
| CCN(CC)CCOc1ccc(/C(=C(/Cl)c2ccccc2)c2ccccc2)cc1 [ENCLOMIPHENE] | 5.82 |

====

# systemUnderTest: Sigma non-opioid intracellular receptor 1 (Homo sapiens, UniProt Q99720)
# Sequence (Q99720 whole entry): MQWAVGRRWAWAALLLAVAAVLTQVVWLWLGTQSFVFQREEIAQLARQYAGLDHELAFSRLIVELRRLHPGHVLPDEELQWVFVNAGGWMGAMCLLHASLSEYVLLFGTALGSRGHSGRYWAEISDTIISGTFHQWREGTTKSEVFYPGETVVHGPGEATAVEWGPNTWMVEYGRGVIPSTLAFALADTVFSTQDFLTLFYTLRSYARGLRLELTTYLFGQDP
# measurementProtocol: DRUGMATRIX: Sigma1 radioligand binding (ligand: [3H] Haloperidol)
# Format: cell membranes, Jurkat, Membrane
# experimentalConditions: jurkat; Not Active = under 50% inhibition at 10 µM

| compound | IC50 |
| --- | --- |
| CN(C)CCOC(c1ccccc1)c1ccccc1 [DIPHENHYDRAMINE] | Not Active |
| Cc1c(OCC(F)(F)F)ccnc1C[S+]([O-])c1nc2ccccc2[nH]1 (stereo not drawn) | Not Active |
| C[C@]12C=CC(=O)C=C1CC[C@@H]1[C@@H]2[C@@H](O)C[C@@]2(C)[C@H]1CC[C@]2(O)C(=O)CO | Not Active |
| O=C1CN=C(c2ccccc2Cl)c2cc([N+](=O)[O-])ccc2N1 | Not Active |
| O=C1O[C@H]([C@@H](O)CO)C(O)=C1O | Not Active |
| O=C(Oc1ccccc1C(=O)O)c1ccccc1O [SALSALATE] | Not Active |
| CCC(=O)O[C@]1(C(=O)CCl)[C@@H](C)C[C@H]2[C@@H]3CCC4=CC(=O)C=C[C@]4(C)[C@@]3(F)[C@@H](O)C[C@@]21C [CLOBETASOL PROPIONATE] | Not Active |
| Nc1ccc2c3c(cccc13)C(=O)NC2=O | Not Active |
